55Fe incorporation/ml of culture reference
system: E. coli; type: cell-based; conditions: 55Fe-complexed human lactoferrin, tannic acid 50 μg/ml, other compounds 100 μM, BF 2% v/v
Please give the numeric answer without any surrounding text.

Example results:
O=C(OC[C@H]1O[C@@H](OC(=O)c2cc(O)c(O)c(OC(=O)c3cc(O)c(O)c(O)c3)c2)[C@H](OC(=O)c2cc(O)c(O)c(OC(=O)c3cc(O)c(O)c(O)c3)c2)[C@@H](OC(=O)c2cc(O)c(O)c(OC(=O)c3cc(O)c(O)c(O)c3)c2)[C@@H]1OC(=O)c1cc(O)c(O)c(OC(=O)c2cc(O)c(O)c(O)c2)c1)c1cc(O)c(O)c(OC(=O)c2cc(O)c(O)c(O)c2)c1; 13952
NC[C@H](O)c1ccc(O)c(O)c1; 8542
NCCc1ccc(O)c(O)c1; 6815
O=C(O)/C=C/c1ccc(O)c(O)c1; 11385

Kindly consider the entry below.
Item: O=C(/C=C/c1ccc(O)c(O)c1)O[C@@H]1C[C@](O)(C(=O)O)C[C@@H](O)[C@H]1O | 55Fe incorporation/ml of culture: 7374
